TESTED_TARGET: inactive BoNT/G (BoNT/Gi) (Clostridium botulinum) (UniProt Q60393)
Sequence (Q60393 whole entry): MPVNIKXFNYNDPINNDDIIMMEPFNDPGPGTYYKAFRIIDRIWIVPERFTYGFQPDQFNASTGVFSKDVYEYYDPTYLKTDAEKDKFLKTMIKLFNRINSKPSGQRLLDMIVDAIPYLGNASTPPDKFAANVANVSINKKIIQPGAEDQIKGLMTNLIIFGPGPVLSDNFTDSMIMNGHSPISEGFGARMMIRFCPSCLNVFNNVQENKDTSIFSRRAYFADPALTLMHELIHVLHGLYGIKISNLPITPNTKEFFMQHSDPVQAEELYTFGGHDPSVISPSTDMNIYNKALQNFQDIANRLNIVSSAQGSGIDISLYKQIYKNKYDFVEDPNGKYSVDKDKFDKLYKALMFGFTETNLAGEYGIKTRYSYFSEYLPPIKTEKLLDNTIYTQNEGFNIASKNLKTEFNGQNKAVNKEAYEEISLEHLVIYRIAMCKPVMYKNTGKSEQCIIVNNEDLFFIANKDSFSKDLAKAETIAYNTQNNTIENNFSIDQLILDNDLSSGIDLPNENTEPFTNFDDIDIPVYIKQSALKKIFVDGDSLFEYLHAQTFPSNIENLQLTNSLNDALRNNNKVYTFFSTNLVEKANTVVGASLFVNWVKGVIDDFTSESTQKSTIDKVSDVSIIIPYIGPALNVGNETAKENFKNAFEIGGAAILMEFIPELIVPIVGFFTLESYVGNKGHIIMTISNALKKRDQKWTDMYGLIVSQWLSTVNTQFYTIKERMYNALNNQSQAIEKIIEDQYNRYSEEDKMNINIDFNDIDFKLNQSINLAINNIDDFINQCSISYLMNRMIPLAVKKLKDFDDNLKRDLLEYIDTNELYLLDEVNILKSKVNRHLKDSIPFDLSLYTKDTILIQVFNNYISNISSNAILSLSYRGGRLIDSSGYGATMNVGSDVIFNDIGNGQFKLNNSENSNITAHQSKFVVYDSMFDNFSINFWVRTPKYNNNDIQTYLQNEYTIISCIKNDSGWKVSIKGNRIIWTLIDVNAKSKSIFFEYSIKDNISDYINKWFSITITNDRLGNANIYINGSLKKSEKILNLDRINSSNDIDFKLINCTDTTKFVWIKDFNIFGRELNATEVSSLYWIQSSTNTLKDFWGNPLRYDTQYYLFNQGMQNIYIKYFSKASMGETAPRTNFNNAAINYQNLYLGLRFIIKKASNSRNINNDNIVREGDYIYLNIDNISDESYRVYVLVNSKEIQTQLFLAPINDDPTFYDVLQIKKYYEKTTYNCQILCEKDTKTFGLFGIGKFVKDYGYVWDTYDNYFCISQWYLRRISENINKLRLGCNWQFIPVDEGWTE
ASSAY_PROCEDURE: FACS, scFv on yeast
pKd: −log10 of the molar value.
pKd listing for selected binders.
MEASURED_PARAMETER: pKd

>>> number("hu6G6.1 scFv (scFv) scFv: QVQLVQSGAEVKKPGASVKLSCKASGFNIKDTYMHWVRQAPGQGLEWIGRIDPENGNTKYDPKFQGRATITAYKSINTAYLELSRLRSDDTAVYYCASGPNYYGTTWFAYWGQGTTVTVSSVDLKSGGSTSGSGKPGSGEGSSGSAREIVLTQSPSTLSASVGDRVTITCRASHGISNYLAWYQQKPGRAPKLLIYKASTLHIGVPSRFSGSGSGTEFALTISSLQPDDFSTYYCQQYNSYLPHTFGQGTRLEIK")
8.47
>>> number("hu6G6 scFv (scFv) scFv: QVQLVQSGAEVKKPGASVKLSCKASGFNIKDTYMHWVRQAPGQGLEWIGRIDPANGNTKYDPKFQGRATITADTSINTAYLELSRLRSDDTAVYYCASGPNYYGTTWFAYWGQGTTVTVSSVDLKSGGSTSGSGKPGSGEGSSGSAREIVLTQSPSTLSASVGDRVTITCRASHGISNYLAWYQQKPGRAPKLLIYKASTLHIGVPSRFSGSGSGTEFALTISSLQPDDFSTYYCQQYNSYLPHTFGQGTRLEIK")
7.64
>>> number("Hu6G9.1 scFv (scFv) scFv: QVQLVQSGAEVKKPGASVKMSCKASGYTFTSYWMHWVRQAPGQGLEWVGYINPSTGYTEYNQKFKDRATLTADKSTSTAYMELRSLRSDDTAVYYCARGGNYVDYWGQGTTLTVSSVDLKSGGSTSGSGKPGSGEGSSGSARDIQMTQSPSTLSASVGERVTITCRASHGISSWLAWYQQKPGKAPKRLIYAVSTLQTGVPSRFSDSGSGTDLTLTINSLQPEDFATYYCQDLNSYPLSFGGGTKVEIK")
8.69
>>> number("Hu6G6.2 scFv (scFv) scFv: QVQLVQSGAEVKKPGASVKLSCKASGFNIKDTYMHWVRQAPGQGLEWIGRIDPENGNTKYDPKFQGRATITAYKSINRAYLELSRLRSDDTAVYYCASGPNYYGTTWFAYWGQGTTVTVSSVDLKSGGSTSGSGKPGSGEGSSGSAREIVLTQSPSTLSASVGDRVTITCRASHGISNYLAWYQQKPGRAPKLLIYKASTLHIGVPSRFSGSGSGTEFALTISSLQPDDFSTYYCQQYNSYLPHTFGQGTRLEIK")
9.66
